Where these numbers come from: patent US20250188176A1

Molecular target: T1, Extracellular domain (ECD) of the canine IL-4 receptor alpha-V5 epitope-AviTag-His Tag (canine)
T1 construct: monomeric form isolated by size exclusion; also called canine IL-4RA-V5-Avi-His; canine IL-4RA
T1 chain: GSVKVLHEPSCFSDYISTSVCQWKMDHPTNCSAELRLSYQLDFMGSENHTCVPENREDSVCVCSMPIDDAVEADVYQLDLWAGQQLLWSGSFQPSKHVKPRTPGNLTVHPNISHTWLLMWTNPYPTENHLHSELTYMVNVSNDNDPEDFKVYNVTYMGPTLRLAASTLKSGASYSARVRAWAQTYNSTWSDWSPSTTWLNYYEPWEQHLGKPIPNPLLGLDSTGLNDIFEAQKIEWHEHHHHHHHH
Assay: SPR, Fab-SASA captured on BSA;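 further: biacore T200 SPR, Fab-SASA variants from E. coli conditioned medium captured on BSA-coated CM5 chip, canine IL-4RA injected 120 s then 420 s dissociation, 1:1 model fit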
As shown below, each of these binders has a reported koff value.
Report as a plain number; the unit s⁻¹ is understood.

# binder, measured_quantity, readout_unit, measurement
measured = [
    ("TB640_005 Fab-SASA VL-L55M (Fab, V domains shown, not shown: SASA tag then His-tag) VH: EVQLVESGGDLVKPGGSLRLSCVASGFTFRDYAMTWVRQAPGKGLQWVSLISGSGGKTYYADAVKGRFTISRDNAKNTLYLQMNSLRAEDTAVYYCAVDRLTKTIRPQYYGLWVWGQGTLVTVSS VL: DIVMTQTPLSLSVSPGETASISCRSSQSLLYSIGYNYLDWYLQKPGQSPQGLIYMGSKRASGVPDRFSGSGSGTDFTLRISRVEANDTGVYYCMQGLQSPLTFGQGTKLEIKR", "koff", "s⁻¹", 0.000669),
]

Please examine the following record next.
Give its koff value. Item: TB640_005 Fab-SASA VH-L50F (Fab, V domains shown, not shown: SASA tag then His-tag) VH: EVQLVESGGDLVKPGGSLRLSCVASGFTFRDYAMTWVRQAPGKGLQWVSFISGSGGKTYYADAVKGRFTISRDNAKNTLYLQMNSLRAEDTAVYYCAVDRLTKTIRPQYYGLWVWGQGTLVTVSS VL: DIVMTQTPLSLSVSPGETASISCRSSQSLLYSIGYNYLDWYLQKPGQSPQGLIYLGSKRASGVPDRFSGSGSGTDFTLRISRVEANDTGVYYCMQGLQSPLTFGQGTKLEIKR
0.00193
